- Tested on: LOC_OS02G08530-cb003;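 also: purified Escherichia coli-expressed rice kinase domain construct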
- PROCEDURE_SUMMARY: thermal shift delta Tm vs DMSO control; higher = stronger stabilization (binding)
- EXPERIMENTAL_SETUP: 12.5 µM; protein concentration 2 µM
REPORTED_PROPERTY: thermal shift delta Tm (°C)
Use °C as the unit, but write only the number.

// known answers, use as guide
- COMPOUND: "COc1cc(N2CCN(C)CC2)ccc1Nc1ncc2c(n1)N(C)c1ccccc1C(=O)N2"
  UNITS_OF_MEASURE: "°C"
  thermal shift delta Tm: 0.62
- COMPOUND: "c1cncc(CN2CCC(n3ncc4c(N5CCOCC5)nc(-c5ccc6[nH]ccc6c5)nc43)CC2)c1"
  UNITS_OF_MEASURE: "°C"
  thermal shift delta Tm: 0.57
- COMPOUND: "Oc1cccc(-c2nc(N3CCOCC3)c3oc4ncccc4c3n2)c1"
  UNITS_OF_MEASURE: "°C"
  thermal shift delta Tm: 0.91

Note: attention shifts to another entry.
Prompt: Please report the recorded thermal shift delta Tm for Cc1cc(C(=O)NOCCO)c(Nc2ccc(I)cc2F)n(C)c1=O .
Response: 0.29
